Test system: weeds and/or crops
Method description: Post-emergence biological efficacy (Table 4)
Format: in vivo
Recorded conditions: 312 h, ZEAMX, 1000 g/ha, evaluated after 13 days, read-out: damage to plant ZEAMX (100=total damage; 0=no damage)
pest or weed control at 1000 g/ha by entry:
Just the number please, in %, no unit attached.

Here's what some known entries look like.
Query smiles	pest or weed control at 1000 g/ha / %
CSc1c(Cl)cccc1C(F)(F)C(=O)O	10
CCc1cccc(C(F)(F)C(=O)O)c1Cl	10

Hey, weeds and/or crops data for "COc1c(C)cccc1C(F)(F)C(=O)O" : pest or weed control at 1000 g/ha came out at 10

Item "COc1c(F)ccc(F)c1C(F)(F)C(=O)O" was tested on weeds and/or crops; the reported pest or weed control at 1000 g/ha is 10

###

Tested on: IPOHE
Method description: Pre-emergence biological efficacy (Table 3)
Type: in vivo
Recorded conditions: Ipomoea hederacea, 312 h, 1000 g/ha, after 13 days, read-out: evaluation (100=total damage to plant; 0=no damage to plant)
Outcome label depends on pest or weed control at 1000 g/ha relative to 50%: at/above gives Y, below gives N.

Check this molecule for pest or weed control at 1000 g/ha at or above 50%: "O=C(O)C(F)(F)c1cc(-c2ccc(F)cc2)cc(Cl)c1Cl"
N

Textbook exercise: given the entry "O=C(O)C(F)(F)c1cccc(OC(F)F)c1Cl" , state whether its pest or weed control at 1000 g/ha is greater than or equal to 50%.
Y

Would you say "COc1cccc(C(F)(F)C(=O)O)c1C" shows pest or weed control at 1000 g/ha at minimum 50%?
Y

###

System: STEME
Method description: Pre-emergence biological efficacy (Table 3)
Assay type: in vivo
Recorded conditions: 312 h, after 13 days, read-out: evaluation (100=total damage to plant; 0=no damage to plant)
Quantity measured: pest or weed control at 1000 g/ha (%)
Numeric answer only, unit % assumed.

Reference set (3 entries):
Query smiles	pest or weed control at 1000 g/ha [%]
O=C(O)C(F)(F)c1cccc2c1OC(F)(F)O2	50
O=C(O)C(F)(F)c1cc(O)ccc1Cl	0
O=C(O)C(F)(F)c1cccc2cccc(Cl)c12	80

Form field pest or weed control at 1000 g/ha, entry "Cc1noc2cccc(C(F)(F)C(=O)O)c12" : 20

Lookup result for "COc1c(F)cccc1C(F)(F)C(=O)O" ; measured pest or weed control at 1000 g/ha: 10

The compound "CCOC(=O)C(F)(F)c1cccc2cccc(C(F)(F)C(=O)OCC)c12" showed pest or weed control at 1000 g/ha equal to 40

response.value for "O=C(O)C(F)(F)c1cc(Cl)c(Cl)cc1O" (field: pest or weed control at 1000 g/ha) = 0

Record summary for "COc1c(Cl)cc(Cl)c(Cl)c1C(F)(F)C(=O)O" : reported pest or weed control at 1000 g/ha = 30

get_value(item= "O=C(O)C(F)(F)c1c(F)ccc2cccnc12" , readout=pest or weed control at 1000 g/ha) returns 50

Notebook: "Nc1cc(Cl)c(Cl)c(C(F)(F)C(=O)O)c1" , pest or weed control at 1000 g/ha read as 10

###

Property: score (100=total damage to plant, 0=no damage to plant); scope: individual compounds
Tested on: STEME
Method description: Biological efficacy, pre-emergence glasshouse test (Table 2)
Format: in vivo
Recorded conditions: 1000 g/ha, after 12 days
Form rule: numeric answer, no unit written next to it.

These solved cases illustrate the format of a correct answer.
Compound	Numeric readout
COc1cccc(C(F)(F)C(=O)O)c1 [Compound 1-6]	0
Nc1cccc(C(F)(F)C(=O)O)c1 [Compound 1-8]	0
O=C(O)C(F)(F)c1ccc(OC(F)(F)F)cc1 [Compound 1-3]	30
CCc1c(Cl)cccc1C(F)(F)C(=O)O [Compound 1-275]	100
C#Cc1c(Cl)cccc1C(F)(F)C(=O)O [Compound 1-291]	100

# input for lookup
So for N.N#Cc1cccc(C(F)(F)C(=O)O)c1Cl [Compound 7-231] , the logged score (100=total damage to plant, 0=no damage to plant) turned out to be 100

###

Entries and their score (100=total damage to plant, 0=no damage to plant)
Tested on: AMARE
Method description: Biological efficacy, pre-emergence glasshouse test (Table 2)
Type: in vivo
Recorded conditions: 1000 g/ha, after 12 days

Query smiles	Result
CCOc1ccccc1C(F)(F)C(=O)O	50

// "COc1ccc(C(F)(F)C(=O)O)cc1" : score (100=total damage to plant, 0=no damage to plant) value = 0

Measured score (100=total damage to plant, 0=no damage to plant) of "Nc1cccc(C(F)(F)C(=O)O)c1" : 0

###

Documented pest or weed control at 1000 g/ha across a set of compounds
Tested on: IPOHE
Method description: Pre-emergence biological efficacy (Table 3)
Assay type: in vivo
Recorded conditions: Ipomoea hederacea, 312 h, 1000 g/ha, after 13 days, read-out: evaluation (100=total damage to plant; 0=no damage to plant)
API: value field is a number in %; no unit string.

Example cases with answers are listed next.
Query smiles	Measure unit	pest or weed control at 1000 g/ha
O=C(O)C(F)(F)c1cccc([N+](=O)[O-])c1Cl	%	50
COc1c(F)cccc1C(F)(F)C(=O)O	%	60
COc1cccc(C(F)(F)C(=O)O)c1F	%	90

Read the next record carefully.
# compound "Cc1cccc(C(F)(F)C(=O)O)c1C#N" ; its pest or weed control at 1000 g/ha = 40

###

Tested on: AMARE
Method description: Pre-emergence biological efficacy (Table 3)
Type: in vivo
Recorded conditions: Amaranthus retroflexus, 312 h, 1000 g/ha, after 13 days, read-out: evaluation (100=total damage to plant; 0=no damage to plant)
Quantity measured: pest or weed control at 1000 g/ha
Value and unit, in that order.

Use these answered entries as a reference point.
Query smiles	System tested	Result
COC(=O)C(F)(F)c1c(Cl)ccc(Cl)c1OC	AMARE	40%
O=C(O)C(F)(F)c1cccc2cccnc12	AMARE	80%
O=C(O)C(F)(F)c1c(F)ccc2cccnc12	AMARE	80%
COc1ccc(Cl)c(C(F)(F)C(=O)O)c1	AMARE	80%

Now turn to the next compound.
Record "O=C(O)C(F)(F)c1cccc2ccccc12" . Reported pest or weed control at 1000 g/ha: 80%

###

Tested on: weeds and/or crops
Method description: Post-emergence biological efficacy (Table 4)
Assay type: in vivo
Recorded conditions: Setaria faberi, 312 h, SETFA, 1000 g/ha, evaluated after 13 days, read-out: damage to plant SETFA (100=total damage; 0=no damage)
# binarize pest or weed control at 1000 g/ha: threshold 10% inclusive, high side satisfied, low side not satisfied

Here are 2 compounds together with their reported answers.
Query smiles	Answer label
O=C(O)C(F)(F)c1cccc(OC(F)F)c1Cl	satisfied
N#Cc1c(F)cccc1C(F)(F)C(=O)O	satisfied

I'd appreciate it if you could say whether "COc1c(F)ccc(C(F)(F)C(=O)O)c1F" has pest or weed control at 1000 g/ha at least equal to 10%.
satisfied

Test whether the compound "COC(=O)C(F)(F)c1c(Cl)ccc2cc(Cl)cnc12" records pest or weed control at 1000 g/ha of 10% or higher.
not satisfied

Could you tell me if the measured pest or weed control at 1000 g/ha of "COc1ccc(C(F)(F)C(=O)O)c([N+](=O)[O-])c1F" reaches 10% or more?
satisfied

Item "O=C(O)C(F)(F)c1cccc(Cl)c1OC(F)F" with pest or weed control at 1000 g/ha of 10% or above?
satisfied

Can "COc1c(Cl)ccc(Cl)c1C(F)(F)C(=O)O" be said to have pest or weed control at 1000 g/ha at or above 10%?
not satisfied

Say whether "N#Cc1cccc(C(F)(F)C(=O)O)c1F" shows pest or weed control at 1000 g/ha of 10% or more.
satisfied

###

System: AMARE
Method description: Pre-emergence biological efficacy (Table 3)
Type: in vivo
Recorded conditions: Amaranthus retroflexus, 312 h, 1000 g/ha, after 13 days, read-out: evaluation (100=total damage to plant; 0=no damage to plant)
Method: Seeds of weeds and/or crops were sown in standard soil in pots. […] The test plants were then grown under controlled conditions in the glasshouse (at 24/18° C., day/night; 15 hours light; 50% humidity) and watered twice daily. After 13 days the test was evaluated (100=total damage to plant; 0=no damage to plant).
Reported values of pest or weed control at 1000 g/ha for individual entries

Query smiles	System tested	pest or weed control at 1000 g/ha
Nc1c(Cl)cc(Cl)c(Cl)c1C(F)(F)C(=O)O	AMARE	30%

Input "COc1c(Cl)ccc(F)c1C(F)(F)C(=O)O" . Output pest or weed control at 1000 g/ha: 50%

Looking up "COCc1c(Cl)cccc1C(F)(F)C(=O)O" , I see its pest or weed control at 1000 g/ha listed as 30%

Cited source for all entries: patent US20240251792A1
